B1: glmS ribozyme (parent)
chain: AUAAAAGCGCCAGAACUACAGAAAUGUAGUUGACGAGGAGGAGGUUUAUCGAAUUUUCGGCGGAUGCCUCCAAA

Variants of: B1
test-description: self-cleavage kobs at 10000 uM GlcN6P; higher = faster cleavage; RNA array
reported-conditions: with glucosamine-6-phosphate
This sample holds only a part of the variants without activity.
readout-type: self-cleavage kobs at 10000 uM GlcN6P (s⁻¹)
Entry rule: numbers only, all in s⁻¹.

{"mutation-list": "C16U U55A C68G", "self-cleavage kobs at 10000 uM GlcN6P / s⁻¹": "7.42e-05"}

### Prompt Need self-cleavage kobs at 10000 uM GlcN6P, item C10A C11G C16G A48U C50G C70A
### Response 6.85e-05

### Prompt Now the same for U45C U54C
### Response 0.00213

### Prompt Now the same for C50G C70A
### Response 7.91e-05
